Tested on: RPMI-8226 leukemia
Test: NCI-60 one-dose screen, 48 h
Details: 10 µM unless noted
This is part of a sample that, as a whole, favours compounds with a hit. Of some 83,000 tested, about 20% had one in any assay. Active and inactive are the calls of the source. The calls were made as follows: active = growth percent below 10; inactive = the rest.
Respond with a class label; see YES = active, NO = inactive

COMPOUND | LABEL VALUE
CCOC(=O)C1CN(Cc2ccccc2)C(=O)C1=O (configuration not stated) | NO
Nc1nccc2c1ccn2-c1ccc(NC(=O)c2ccc(N3CCOCC3)c(C(F)(F)F)c2)cc1 | YES
O=C(N/N=C1\SCC(=O)N1c1ccccc1)c1cc(-c2cc3ccccc3o2)nn1-c1ccccc1 | NO
O=C(Nc1cccc(-n2ccc3c(NC(=O)c4ccccc4)nccc32)c1)c1cccc(C(F)(F)F)c1 | YES
COc1cc(CN(c2ccc(Cl)cc2)C2OC(=O)c3ccccc32)cc(OC)c1OC (configuration not stated) | NO

**Q:** Which outcome did this test record for the compound CN1C(=O)C2(SCC(C(=O)NCC(=O)OC(C)(C)C)N2C(=O)C2CCCCC2)c2ccccc21 (configuration not stated) ?
**A:** NO

**Q:** Which outcome did this test record for the compound O=C(Nc1cccc([N+](=O)[O-])c1)c1ccc2ccccc2c1O ?
**A:** YES

**Q:** Which outcome did this test record for the compound O=S(=O)(CCN1CCOCC1)Nc1cc(-c2ccc3ncnc(Nc4ccc(F)c(Cl)c4)c3c2)cnc1Cl ?
**A:** YES

**Q:** Which outcome did this test record for the compound CC(C)(C)NCC(O)COc1c(Br)c(Br)c(Br)c2c1OC(C)(C)C2 (configuration not stated) ?
**A:** YES

**Q:** Which outcome did this test record for the compound c1nc(SC2=NCCN2)c2[nH]cnc2n1 ?
**A:** NO

**Q:** Which outcome did this test record for the compound C=C(C)[C@@H]1C/C=C(\COC(=O)[C@H](OC(C)=O)C(NC(=O)c2ccccc2)c2ccccc2)CC[C@H]2O[C@]2(C)CC/C=C(\C)CC1 (some centres not stated) ?
**A:** YES

**Q:** Which outcome did this test record for the compound CCOC(=O)CSc1nnc(-c2cc3c([nH]c4ccccc43)c(-c3cccc(O)c3)n2)n1-c1ccc(C)cc1 ?
**A:** NO

**Q:** Which outcome did this test record for the compound CCCc1nn2c(CCC(=O)c3nc4ccc([N+](=O)[O-])cc4[nH]3)nnc2s1 ?
**A:** NO

**Q:** Which outcome did this test record for the compound c1ccc(OCC[P+](c2ccccc2)(c2ccccc2)c2ccccc2)cc1 ?
**A:** NO

**Q:** Which outcome did this test record for the compound O=C(CSc1nnc(-c2ccc(Cl)cc2)o1)Nc1ccc(C(=O)/C=C/c2ccccc2)cc1 ?
**A:** NO

**Q:** Which outcome did this test record for the compound C=C1c2c(Cl)ccc(O)c2C(O)=C2C(=O)[C@]3(O)C(O)=C(C(N)=O)C(=O)[C@@H](N(C)C)[C@@H]3[C@@H](O)[C@H]12 ?
**A:** NO

**Q:** Which outcome did this test record for the compound C=C1C(=O)O[C@H]2[C@H]1CC/C(C(=O)NCCOCCOCC(=O)Nc1ccc(OC)c(C(N)=O)c1O)=C\CC[C@@]1(C)O[C@@H]21 ?
**A:** NO

**Q:** Which outcome did this test record for the compound C=C1C(=O)O[C@H]2[C@H]1CC/C(COC(=O)c1ccc(C#N)cc1)=C\CC[C@@]1(C)O[C@@H]21 ?
**A:** YES

**Q:** Which outcome did this test record for the compound Cc1cccc(NC(=O)CCc2ccc(N3C(N)=NC(N)=NC3(C)C)cc2)c1 ?
**A:** NO

**Q:** Which outcome did this test record for the compound CCCCCCCCN(CCCCCCCC)CC(O)c1cc(-c2ccccc2)nc2ccc(OC)cc12 (configuration not stated) ?
**A:** YES

**Q:** Which outcome did this test record for the compound Cc1nc(-c2ccc(Cl)cc2)ccc1NC(=O)Nc1cccc(C(F)(F)F)c1 ?
**A:** NO

**Q:** Which outcome did this test record for the compound COc1cccc(/C=N/C(=S)NC2(C)C3CCC(C3)C2(C)C)c1O (configuration not stated) ?
**A:** NO

**Q:** Which outcome did this test record for the compound Cc1cccc(NCS(=O)(=O)O)c1 ?
**A:** NO
